# assay_comment: A qHTS for Small Molecule Inhibitors of Shiga Toxin; also: 0% is about no effect
# reported_conditions: Vero cells, Shiga toxin protein synthesis inhibition reporter; at 38.7 µM, stronger effect = higher value
In all, about 290,000 compounds went through this assay and about 27,000 (9.3%) were called active. This excerpt belongs to a sample that is enriched for actives.
// reported inhibition per item

Check out these entries, answers already filled in.
1. Cc1cc2nc(C)n(CCCNC(=O)Nc3ccccc3)c2cc1C
9% (inactive)
2. Cc1cc(OCC(=O)NCC(O)c2ccccc2)c2c(C)c(C)c(=O)oc2c1 (centres undefined)
0.938% (inactive)
3. Cc1nc2cc(C(F)(F)F)ccc2n1CCNc1nc(-c2cc(Cl)c(N)c(Cl)c2)cs1
-1.88% (inactive)

Here is another compound to look at.
Requested field: inhibition. Item: `Cn1c(=O)n(C)c2cc(C(=O)Nc3ccc(Br)cc3)ccc21` -10.4% (inactive)
